Some binders, each annotated with its measured Ki.
- tested on: T1, Y2-like receptor population expressed by human SK-N-Be(2) neuroblastoma cells (human)
- T1 chain: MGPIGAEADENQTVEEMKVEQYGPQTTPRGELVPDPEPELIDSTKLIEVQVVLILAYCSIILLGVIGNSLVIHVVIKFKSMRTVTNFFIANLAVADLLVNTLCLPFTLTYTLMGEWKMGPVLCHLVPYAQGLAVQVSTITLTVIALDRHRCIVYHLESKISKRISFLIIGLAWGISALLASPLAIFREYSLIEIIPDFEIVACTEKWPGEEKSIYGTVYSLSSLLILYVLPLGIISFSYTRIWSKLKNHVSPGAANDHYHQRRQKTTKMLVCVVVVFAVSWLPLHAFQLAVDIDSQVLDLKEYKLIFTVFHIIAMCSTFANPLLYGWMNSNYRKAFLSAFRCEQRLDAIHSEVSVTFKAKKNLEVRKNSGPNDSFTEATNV
- test details: 125I-PYY displacement, SK-N-Be(2) membranes, Ki from IC50
Where no end group is shown, it is not given here.
// unit must come after the numeric part

binder: HYINLITRQRY-NH2 (peptide, UniProt P01304 35-45, looked up, range 26-36; also called NPY26-36, porcine) [porcine NPY26-36]
Ki: 70 nM
--
binder: SALRHYINLITRQRY-NH2 (peptide, UniProt P01304 31-45, looked up, range 22-36; also called NPY22-36, porcine) [porcine NPY22-36]
Ki: 3.2 nM
--
binder: PAEDLARYYSALRHYINLITRQRY-NH2 (peptide, UniProt P01304 22-45, looked up, range 13-36; also called NPY13-36, porcine) [porcine NPY13-36]
Ki: 1.8 nM

// moving on: another record for Ki
Could you share which Ki value was measured for DLARYYSALRHYINLITRQRY-NH2 (peptide, UniProt P01304 25-45, looked up, range 16-36; also called NPY16-36, porcine) [porcine NPY16-36] ?
5 nM
